What apparent Kd was measured for each of the following?
Tested on: MS2 coat protein
PROTOCOL DETAILS: apparent Kd, MS2 coat protein; higher = weaker binding; RNA-MaP array; FMN 200 µM where present
CONDITION LABEL: designed as: OFF switch for flavin mononucleotide; no ligand
Give bare numbers, in nM.

INSERT INTO results (sequence_input, target_under_test, reported) VALUES
  ('UUCGUGCAGCUUUGCUGUACGCGUACAUGAGGAUCACCCAUGUAGGAUAUGGUACGCUUUGCGUGCUAGAAGGAUAUGGAGAGC', 'MS2 coat protein', 15.7),
  ('AUGAGUAAAGCAGGAUAUCUAUUGUCUCUGUAACAUGAGGAUCACCCAUGUAGAGAAGGGCUUAGUCAUACACUUCGAAGUUGA', 'MS2 coat protein', 9.13),
  ('UGUCCAUAGCAGAAGGACAUAAAUACAUGACCAAACAUGAGGAUCACCCAUGUAGGAUAUGCUAUGGACUAAGAGCGAAAGCUC', 'MS2 coat protein', 6.6);

GET /values?readout=apparent Kd&item= GGUUGUCAUAGUCAUCCUUAACGUACAUGAGGAUCACCCAUGUAGGAUAUGCUACUCAAAGAGUAGCAGAAGGGCGUGUGUCUU 31

----------
Test system: MS2 coat protein
PROTOCOL DETAILS: apparent Kd, MS2 coat protein; higher = weaker binding; RNA-MaP array; FMN 200 µM where present
CONDITION LABEL: ligand present: flavin mononucleotide; designed as: OFF switch for flavin mononucleotide
Is apparent Kd at least 60 nM? Then T. If not, F.

INSERT INTO assay_data (sequence_input, target_under_test, class_assignment) VALUES
  ('GUCACUAGAGGAUAUACAAUGGUAUAUGAUCCUAGAGACAUACAUGAGGAUCACCCAUGUAGAAGGCUAGUAAU', 'MS2 coat protein', 'F'),
  ('UGUCGGAGCAGAGGAUAUUACAUGAGGAUCACCCAUGUAUGAACCAAUAGCUGGAAACAGCGAUGUAAGAAGGCUGCUCCGACA', 'MS2 coat protein', 'T'),
  ('GGAUGUCAAAGACAUCCAUAACGAACAUGAGGAUCACCCAUGUAGGAUAUGCUACUCAAAGAGUAGCAGAAGGACAUGUGUCUU', 'MS2 coat protein', 'T'),
  ('AACACUUAAAAGUGAGGCGAUAGGUAGGAUAUACAUGAGGAUCACCCAUGUAUGGGCUAUCUGCGGUAGAAGGACCUCUGGCCC', 'MS2 coat protein', 'F'),
  ('CAGUACUGAGGAUAUACAUGAGGAUCACCCAUGUGUUCCAGCUAGGAAACUAGCAUAAGUAGAAGGCAGUACUG', 'MS2 coat protein', 'T');

Does the reported apparent Kd for AACUACUCUGUGAGGAUAUGCGAUCGUUGAUCAAAGCAGAAGGCACAUGAGGAUCACCCAUGUUCCUACGAGGG fall at or above the 60 nM mark? T

Identify whether the reported apparent Kd of the following sequence is 60 nM or greater: CCAUAAAAGAUCCAAAAUUACAACAUGAGGAUCACCCAUGUGCAGGAUAUCGUGAAAGUAAAAUACGAGAAGGGCAAACACUGC T

Could you verify whether the entry CAGCGAAAGCUGAAUCUGUAGAGAGAGGAUAUACAAGAAUAAGUCCAUACAUGAGGAUCACCCAUGUAGAAGGCUCUCUACAGU shows apparent Kd of no less than 60 nM? F

In plain terms: is recorded apparent Kd at least 60 nM for AGGCGAGUAGGAUAUGCGUAUUUACAGGAAAGCUGGAUGGUACAUGAGGAUCACCCAUGUAGAAGGGCUCUGAA ? F

Check this sequence for apparent Kd at or above 60 nM: GGCGUGUUAGGAUAUCGCGGCGGCGGCGUUUGUUGUUGUUGUGAGAAGGAACAUGAGGAUCACCCAUGUGCGCC F

I'd appreciate it if you could say whether ACAGACCAUCGAGGAUAUGAACAUGAGGAUCACCCAUGUAAGUGGAAGAUGGUGAUUCCUGGGCUUCAGAAGGCGAACGUCAGG has apparent Kd at least equal to 60 nM. F

----------
System: MS2 coat protein
PROTOCOL DETAILS: apparent Kd, MS2 coat protein; higher = weaker binding; RNA-MaP array; FMN 200 µM where present
CONDITION LABEL: designed as: OFF switch for flavin mononucleotide; no ligand
Quick rule: apparent Kd of at least 20 nM means class 1, below that means class 0.

INSERT INTO results (sequence_input, target_under_test, class_assignment) VALUES
  ('UUUAUUUAGGCAGGAUAUACAUGUAUAUAUAUUUCUUUAUAUCUUAUUACAUGAGGAUCACCCAUGUAGAAGGGCCUUAUUAUA', 'MS2 coat protein', 'class 0'),
  ('CAUUAAUUCAUUAUAGUUAUUAUACAGGAUAUGUUACAUGAGGAUCACCCAUGUAUUCAUGGUAAACAGAAGGGUAAUACUCGU', 'MS2 coat protein', 'class 1'),
  ('CCAUUCAGAGGAUAUGCGCAUAGAUAAGACUUUUUUUUUUAACAUGAGGAUCACCCAUGUAGAAGGCUGUAACC', 'MS2 coat protein', 'class 1'),
  ('CUGUGAUGGAUCCAGAAUUACAACAUGAGGAUCACCCAUGUGCAGGAUAUCGGGUUGAUAGGCGCCGAGAAGGGUAUAAUCACG', 'MS2 coat protein', 'class 1'),
  ('UGAUAGCACAGAGGAUAUGCGUAGUGUUAUCUCUACAUGAGGAUCACCCAUGUAGAAGGCUGUGCUAUCUAAGUCGGAAACGAC', 'MS2 coat protein', 'class 0'),
  ('GUUUCGGGAGGAUAUGCGUGGAUUAUUCUCGUAUGUUGUUUACAUGAGGAUCACCCAUGUAGAAGGUCUGGAGC', 'MS2 coat protein', 'class 1'),
  ('AAUAACAGAGGAUAUACUAUUUUAUGUGUUUGUUAUUUUGAACAUGAGGAUCACCCAUGUAGAAGGCUGAAUGA', 'MS2 coat protein', 'class 1'),
  ('UUUAUAAAGAAAGGAUAUAGUAUAAUAAUUUAAUUAGAAGGUUCACACAUGAGGAUCACCCAUGUAUGAGGAUCACCCAUGUAU', 'MS2 coat protein', 'class 1');

Evaluate UCAUACAUGACAUGACAUGACAUGAGGAUCACCCAUGUUUACAAGGAUAUGUUGAUGAAACAUCAACAGAAGGUGUAUUGGACU : apparent Kd at minimum 20 nM? class 1

Reported apparent Kd reaches at least 20 nM for AUGAGUAAAGCAGGAUAUCUAUUGUCUCUGAAACAUGAGGAUCACCCAUGUAGAGAAGGGCUAAGUCUUACUCUUCGGAGUUGA ? class 0

----------
System: MS2 coat protein
PROTOCOL DETAILS: apparent Kd, MS2 coat protein; higher = weaker binding; RNA-MaP array; FMN 200 µM where present
CONDITION LABEL: ligand present: flavin mononucleotide; designed as: ON switch for flavin mononucleotide
For each entry below, report its apparent Kd value.
One number for each entry, in nM.

# annotated cases, reported apparent Kd shown
INSERT INTO results (sequence_input, target_under_test, value_type, unit_text, reported) VALUES
  ('UCGUACAUUCGAGGAUAUCGGUGAUAAAUAAUACGAGAAGGCGAUUUUAGGCAUAACGCCUUAGACAUGAGGAUCACCCAUGUA', 'MS2 coat protein', 'apparent Kd', 'nM', 55.1),
  ('AUGCAGCCACCACAGGAUAUACGUGGAUCGACAUGAGGAUCACCCAUGUAUAUCCUAAUAAUUGCGUAGAAGGGUGGUCGGCUGG', 'MS2 coat protein', 'apparent Kd', 'nM', 81.8),
  ('GUGGUCAGACAUGAGGAUCACCCAUGUGGAAUAAAUAAGGAUUAGGAUAUGGAAUAUAGGAUAUACCAGAAGGAAUGGUUGGUG', 'MS2 coat protein', 'apparent Kd', 'nM', 103);

Please give the measured apparent Kd for this sequence: GCGCUUAUACAGAAGGCCAUAUACAUGAGGAUCACCCAUGUUACAUGGUGGAGGAUAUGUUAUUUAUUACAGGUAGAUGAGCGC 5.32

----------
For each of the sequences below, state its apparent Kd.
Tested on: MS2 coat protein
PROTOCOL DETAILS: apparent Kd, MS2 coat protein; higher = weaker binding; RNA-MaP array; FMN 200 µM where present
CONDITION LABEL: ligand present: flavin mononucleotide; designed as: ON switch for flavin mononucleotide
Give bare numbers, in nM.

Previously resolved entries follow.
INSERT INTO measurements (sequence_input, target_under_test, value_type, reported) VALUES
  ('UGCAAAAUUGCAACAUGAGGAUCACCCAUGUCUGGGUUGGCCAAGGAUAUGCUUCUAAUCCUAGUGCAGAAGGUGGAAACUCAU', 'MS2 coat protein', 'apparent Kd', 530),
  ('AAAUGAUAGUCAGGAUAUAAGUUGGAGCCUCGGUCGCACAUGAGGAUCACCCAUGUGUCUUGGAUUUAGAAGGGACAGAUGGGC', 'MS2 coat protein', 'apparent Kd', 648),
  ('AAAAAAAAAACUCAGGAUAUAGAUUGUAGAACAUGAGGAUCACCCAUGUAGUGAAAGAAGAGAGACUAGAAGGGAGUAAAAAAAAA', 'MS2 coat protein', 'apparent Kd', 74.7),
  ('CGCGGACAAGAGAAGGCCAGACCUCGGAACCUGAGGCACCGCUAGGCAUGGAGGAUAUCUUGACAUGAGGAUCACCCAUGUACU', 'MS2 coat protein', 'apparent Kd', 33.7);

Report apparent Kd for each item below.
1. GGUGCACGCACAGGAUAUCCGGCGAAGCUCGUCGGAGAAGGGUGACAUGAGGAUCACCCAUGUACGUGCAACCCAGUUUGAGAG
2. UCAUUUAAUACAGGAUAUGUUAGUAUACAGUAGAUUGGUUAUAACAUAAUAACAGAAGGGUAGAACAUGAGGAUCACCCAUGUA
3. GGAUGAGCAAUAGGAUAUGCUGGUAUUGAAUGGGUAGAAGGAUUUCUAGUGGUAAAGACAUGAGGAUCACCCAUGUAGCGGCCC
4. UUACUCAUGUAAGGAUAUGUAGCCGUUUCGGCUGCAGAAGGUACUAUAAUACAUGAGGAUCACCCAUGUCUUUUUAAUUUAGAC
5. CAGGAGAACACAGGAUAUCCGUAAGACAUGAGGAUCACCCAUGUUUGUGGCCCGCCAGGGCUGACGGAGAAGGGUGACUCGCAC
6. AAUUAACUCACAGGAUAUAGCAGAGGUCGAGUGAACUUACACGCGACGAGGCUAGAAGGGUGACCACAUGAGGAUCACCCAUGU
7. CCCAAACUUGGGUUUAAUGGUUCAUAGGAUAUGCUUGUACAUGAGGAUCACCCAUGUACUAUUGUGCAGAAGGGUGCAUGGCAA

1. 31.4
2. 64.6
3. 265
4. 39.8
5. 5.81
6. 103
7. 26.3

Batch request: apparent Kd for each of the following sequences.
1. GGGUCCAACACAGGAUAUGCUGGACUUUGUCCAGCAGAAGGGUGAAGAACAUGAGGAUCACCCAUGUGGAUCCAUAUAUUUAAU
2. UGUACUUAUUUUAAUUAUGAUUUACUAGAAGGUAGAUACAUGAGGAUCACCCAUGUUUAGAGUUCUAAGGAUAUAGAUUUUAUC
3. GAGUAGUUGAAAGGAUAUUGAUUAUUGUAGGAUCAAGAAGGUUCUAACAUGAGGAUCACCCAUGUAGGACUAUUCCUGUGUAUC

17.9
10.2
10.8
